Target: Cellular retinoic acid-binding protein 2 (Homo sapiens)
Test: Displacement of DC271 from CRABP2 (unknown origin) by fluorescence assay
MEASUREMENT TYPE: Kd (nM)
Write the answer as a number in nM, unit excluded.

// CC1(C)CCC(C)(C)c2cc(C#Cc3ccc(C(=O)O)cc3)ccc21 : Kd value = 160

---

Biological target: Cellular retinoic acid-binding protein 2 (Homo sapiens) (UniProt P29373)
Sequence (whole entry): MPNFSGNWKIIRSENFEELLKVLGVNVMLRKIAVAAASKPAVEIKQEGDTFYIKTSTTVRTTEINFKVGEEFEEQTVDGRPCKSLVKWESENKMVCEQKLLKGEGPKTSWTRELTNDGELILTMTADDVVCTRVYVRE
Experiment: Displacement of DC271 from CRABP2 (unknown origin) at 200 to 1600 nM by fluorescence assay
Calls of active or inactive are those of the source. The calls are words filed in the database; no cut-off is given here.
MEASUREMENT TYPE: inhibition

Solved cases (4 shown):
> print(dat)
                                 smiles.str  measurement.type  reported.value
1                            O=C(O)c1ccccc1        inhibition        inactive
2                            c1ccc2ncccc2c1        inhibition        inactive
3  CC1=C(/C=C/C(C)=C\C=C\C(C)=C\C(=O)O)C(C)(C)CCC1        inhibition          Active
4  CC1=C(/C=C/C(C)=C/C=C/C(C)=C\C(=O)O)C(C)(C)CCC1        inhibition        inactive

// CC1=C(/C=C/C(C)=C/C=C/C(C)=C/C(=O)O)C(C)(C)CCC1 : inhibition value = Active
